Recorded measurements of pIC50, one per entry
# TESTED SYSTEM: XIAP-BIR3 (Homo sapiens, UniProt P98170)
# Construct: XIAP-BIR3
# Sequence (P98170 241-356 limits assumed): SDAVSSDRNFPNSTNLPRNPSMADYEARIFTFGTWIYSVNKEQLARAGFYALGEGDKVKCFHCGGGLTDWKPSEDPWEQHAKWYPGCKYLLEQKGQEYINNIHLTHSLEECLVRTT
# ASSAY METHOD TEXT: XIAP-BIR3 fluorescence polarization binding assay
# EXPERIMENTAL PARAMETERS: FP, probe AbuRPFK-5FAM (SM5F) 5 nM, XIAP-BIR3 40 nM, 60 min at 25° C.
pIC50: −log10 of the molar value.

{"columns": ["MOLECULE", "pIC50"],
 "data": [
  ["CN[C@@H](C)C(=O)NC(C(=O)N1CCC[C@H]1C(=O)N[C@@H]1CCCc2cc(N3CCN(c4ccc5c(c4)CCC[C@H]5NC(=O)[C@@H]4CCCN4C(=O)[C@@H](NC(=O)[C@H](C)NC)C4CCCCC4)CC3)ccc21)C1CCCCC1 (stereo partly shown) [VIII-B]", "< 6.00"],
  ["CC[C@H](NC(=O)[C@H](C)NC)C(=O)N1CCC[C@H]1C(=O)N[C@@H]1CCCc2c(Oc3cccc4c3CCC[C@H]4NC(=O)[C@@H]3CCCN3C(=O)[C@H](CC)NC(=O)[C@H](C)NC)cccc21 [Compound X-A]", "7.00 to 8.00"],
  ["CN[C@@H](C)C(=O)N[C@H](C(=O)N1CCC[C@H]1C(=O)N[C@@H]1CCCc2c(-c3ccc(-c4ccc(-c5cccc6c5CCC[C@H]6NC(=O)[C@@H]5CCCN5C(=O)[C@@H](NC(=O)[C@H](C)NC)C5CCCCC5)cc4)cc3)cccc21)C1CCCCC1 [Compound III-G]", "6.00 to 7.00"],
  ["CN[C@@H](C)C(=O)N[C@H](C(=O)N1CCC[C@H]1C(=O)N[C@@H]1CCCc2c(NC(=O)c3cccc4c3CCC[C@H]4NC(=O)[C@@H]3CCCN3C(=O)[C@@H](NC(=O)[C@H](C)NC)C3CCCCC3)cccc21)C1CCCCC1 [Compound VII]", "7.00 to 8.00"]
]}

The reported measurements were obtained from patent US20220220152A1.
